Tested on: SH-SY-5Y Cells
Experiment: MTS toxicity assay in SHSY5Y cells
Format: cell-based, human
Details: Dose 0.08 uM
property_name: APP Toxicity SH-SY-5Y Cells (MTS assay) (% vehicle control)
Respond with the bare value in % vehicle control.

Guide cases for APP Toxicity SH-SY-5Y Cells (MTS assay), answers given:
C[C@]12CCN(Cc3ccccc3)C1N(Cc1ccccc1)c1ccc(O)cc12 (stereo partly shown) [MES 9238]: 101.8
C[C@@]12CCN(Cc3ccccc3)C1Nc1ccc(O)cc12 (stereo partly shown) [MES 9279]: 102.9
Cc1cc2c(cc1O)[C@]1(C)CCN(C)C1N2C (stereo partly shown) [MES 9267]: 101.5
CN1CC[C@@]2(C)c3cc(O)ccc3N(C)C2NC1=O (single isomer, unassigned; (-)) [MES 9205]: 108.7
COc1ccc2c(c1)c(CCN(C)C)cn2Cc1ccccc1 [MES 9191]: 104.5
CC(Br)C(=O)N(C)c1ccc(O)cc1 (stereo not shown) [MES 9291, Propionanilde]: 99.1

// switching to the query molecule
Give recorded APP Toxicity SH-SY-5Y Cells (MTS assay) with SH-SY-5Y Cells for the following molecule: CNC(C)c1cccc(OC)c1 (stereo not shown) [MES 9271]
103.55

###

Tested on: SH-SY-5Y Cells
Assay: MTS toxicity assay in SHSY5Y cells
Format: cell-based, human
Settings: Dose 6 uM
property_name: APP Toxicity SH-SY-5Y Cells (MTS assay) (% vehicle control)
Respond with the bare value in % vehicle control.

Guide cases for APP Toxicity SH-SY-5Y Cells (MTS assay), answers given:
COC(=O)CC1(C)C(=O)N(C)c2ccc(OC)cc21 (stereo not drawn) [MES 9309]: 98.6
COc1ccc2c(c1)[C@@]1(C)CC[N+](C)(C)C1N2Cc1ccccc1.[I-] (stereo partly drawn) [MES 9234]: 99.75
CN1CC[C@@]2(C)c3cc(O)ccc3N(Cc3ccccc3)C12 (stereo partly drawn) [MES 9206]: 91.85

Give recorded APP Toxicity SH-SY-5Y Cells (MTS assay) with SH-SY-5Y Cells for the following molecule: COc1ccc2c(c1)[C@]1(C)CCN(Cc3ccccc3)C1N2C=O (stereo partly drawn) [MES 9277]
98.3

Continue with CN1CC[C@@]2(C)C3=CC(=O)C(=O)C=C3N(C)C12 (stereo partly drawn) [MES 9225]
100.1

Continue with COc1ccc2c(c1)C(C)C(=O)N2C (stereo not drawn) [MES 9293]
99.85

Continue with CC(Br)C(=O)N(Cc1ccccc1)c1ccc(O)cc1 (stereo not drawn) [MES 9306]
101.45

Continue with COc1ccc2c(c1)[C@@](C)(CCN(C)C)C(=O)N2C [MES 9310]
99.9

Continue with Clc1ccc(C2CC3CCC2N3)cn1 (stereo not drawn) [MES 9331]
99.99

###

Test system: secreted APP
Assay: ELISA for secreted APP in SHSY5Y cells
Type: cell-based, human
Details: Dose 20 uM, 16 hours
property_name: APP Secretion by SH-SY-5Y Cells (% vehicle control)
Respond with the bare value in % vehicle control.

COc1ccc2c(c1)[C@@]1(C)CCN(C)C1N2C (some centres unmarked) [MES 9229]: 125.1

Could you tell me which APP Secretion by SH-SY-5Y Cells is on file for COc1ccc2c(c1)C(C)(c1ccccc1)C(=O)N2C (centres unmarked) ?
99.95

Continue with CN1CC[C@@]2(C)c3cc(O)ccc3N(Cc3ccccc3)C12 (some centres unmarked)
96.4

Continue with COc1ccc2c(c1)[C@]1(C)CCN(Cc3ccccc3)C1N2 (some centres unmarked)
120.6

###

Tested on: SH-SY-5Y Cells
Experiment: MTS toxicity assay in SHSY5Y cells
Format: cell-based, human
Conditions: Dose 2 uM
Let's look at some molecules and their measured APP Toxicity SH-SY-5Y Cells (MTS assay).
Respond with the bare value in % vehicle control.

Guide cases for APP Toxicity SH-SY-5Y Cells (MTS assay), answers given:
CN1CC[C@@]2(C)c3cc(O)ccc3N(C)C2NC1=O (single isomer, unassigned; (-)) [MES 9205]: 97.9
COc1ccc2c(c1)[C@@]1(C)CCN(Cc3ccccc3)C1N2Cc1ccccc1 (some centres unmarked) [MES 9237]: 96.55
COc1ccc2c(c1)C1(C)CCN(C)C1N2 (centres unmarked) [MES 9201]: 98.9
COc1ccc2c(c1)[C@@](C)(CCN(C)C)C(=O)N2C [MES 9310]: 101.85

Give recorded APP Toxicity SH-SY-5Y Cells (MTS assay) with SH-SY-5Y Cells for the following molecule: COc1ccc2[nH]cc(CCN)c2c1.Cl [MES 9321]
99.9

Continue with COc1ccc2c(c1)[C@]1(C)CCSC1N2C (some centres unmarked) [MES 9302]
100.7

Continue with CN(C)Cc1cc2c(cc1O)[C@]1(C)CCN(C)C1N2C (some centres unmarked) [MES 9266]
96.55

Continue with C/N=C(\C)c1cccc(OC)c1 [MES 9270]
99.4

###

System: secreted APP
Test: ELISA for secreted APP in SHSY5Y cells
Format: cell-based, human
Conditions: Dose 20 uM, 16 hours
Let's look at some compounds and their measured APP Secretion by SH-SY-5Y Cells.
Respond with the bare value in % vehicle control.

CN(C)Cc1cc2c(cc1O)[C@]1(C)CCN(C)C1N2C (some centres unmarked) [MES 9266]: 94.85

Could you tell me which APP Secretion by SH-SY-5Y Cells is on file for COc1ccc2c(c1)c(CCN(C)C)cn2Cc1ccccc1 [MES 9191] ?
64.36

Continue with COc1ccc2c(c1)[C@]1(C)CCSC1N2C (some centres unmarked) [MES 9302]
105.8

Continue with COc1ccc2c(c1)[C@]1(C)CCNC1N2 (some centres unmarked) [MES 9243]
100.55

Continue with C=CC1C[N+]2(Cc3ccc(C(F)(F)F)cc3)CCC1CC2[C@H](O)c1ccnc2ccccc12.[Br-] (some centres unmarked) [MES 9226]
104.65

Continue with Br.CC1=C(c2ccc(O)cc2)CN2CCC[C@H]2C1.O [MES 9330]
110.65

Continue with C[C@@]12CCN(Cc3ccccc3)C1Nc1ccc(O)cc12 (some centres unmarked) [MES 9279]
18.4

Continue with C=CCO[C@H](c1ccnc2ccccc12)C1CC2CC[N+]1(Cc1c3ccccc3cc3ccccc13)CC2C=C.[Br-] (some centres unmarked) [MES 9257]
99.03

###

System: SH-SY-5Y Cells
Assay: MTS toxicity assay in SHSY5Y cells
Type: cell-based, human
Conditions: Dose 6 uM
Let's look at some molecules and their measured APP Toxicity SH-SY-5Y Cells (MTS assay).
Respond with the bare value in % vehicle control.

Cc1cc2c(cc1O)[C@]1(C)CCN(C)C1N2C (stereo partly drawn) [MES 9267]: 96.72

Give recorded APP Toxicity SH-SY-5Y Cells (MTS assay) with SH-SY-5Y Cells for the following molecule: COc1ccc2c(c1)[C@@](C)(CC#N)C(=O)N2C [MES 9227]
99.27

Continue with COc1ccc2c(c1)C1(C)CCN(C)C1N2Cc1ccccc1 (stereo not drawn) [MES 9199]
101.65

###

System: secreted APP
Assay: ELISA for secreted APP in SHSY5Y cells
Format: cell-based, human
Conditions: Dose 20 uM, 16 hours
Let's look at some compounds and their measured APP Secretion by SH-SY-5Y Cells.
Respond with the bare value in % vehicle control.

Guide cases for APP Secretion by SH-SY-5Y Cells, answers given:
COc1ccc2c(c1)[C@]1(C)CCOC1N2C (stereo partly shown): 108.75
CC(Br)C(=O)N(C)c1ccc(O)cc1 (stereo not shown): 67.8
Cc1cc2c(cc1O)[C@]1(C)CCN(C)C1N2C (stereo partly shown): 22.22
C/N=C(\C)c1cccc(OC)c1: 98.15
COc1ccc2c(c1)C1(c3ccccc3)CCNC1N2C (stereo not shown): 102.2

// switching to the query compound
Could you tell me which APP Secretion by SH-SY-5Y Cells is on file for CN1CC[C@@]2(C)C3=CC(=O)C(=O)C=C3N(C)C12 (stereo partly shown) ?
59.75

###

Tested on: SH-SY-5Y Cells
Assay: MTS toxicity assay in SHSY5Y cells
Type: cell-based, human
Settings: Dose 6 uM
property_name: APP Toxicity SH-SY-5Y Cells (MTS assay)
The reply should read as a number followed by its unit.

Guide cases for APP Toxicity SH-SY-5Y Cells (MTS assay), answers given:
CN1c2ccc(OC3CCCCO3)cc2[C@]2(C)CCNC12 (single isomer, unassigned; (-)) [MES 9320, (−)-O-Tetrahydropyranyl-N-1-noreseroline]: 84 % vehicle control
COc1ccc2c(c1)[C@@](C)(CC[N+](C)(C)C)C(O)N2Cc1ccccc1.[I-] (stereo partly drawn): 101 % vehicle control
COc1ccc2c(c1)[C@@]1(C)CCN(C)C1N2C (single isomer, unassigned; (+)) [MES 9295, (+)-O-Methyleseroline]: 100.4 % vehicle control

Could you tell me which APP Toxicity SH-SY-5Y Cells (MTS assay) is on file for CN1CC[C@]2(C)c3cc(O)ccc3N(C)C12 (stereo partly drawn) ?
86.13 % vehicle control

Continue with C=CC1C[N+]2(Cc3ccc(C(F)(F)F)cc3)CCC1CC2[C@H](O)c1ccnc2ccccc12.[Br-] (stereo partly drawn)
99.7 % vehicle control

Continue with COc1ccc2c(c1)[C@@]1(C)CCN(C)C1N2C (stereo partly drawn) [MES 9229]
96.07 % vehicle control

Continue with C=CCO[C@H](c1ccnc2ccccc12)C1CC2CC[N+]1(Cc1c3ccccc3cc3ccccc13)CC2C=C.[Br-] (stereo partly drawn)
98.77 % vehicle control
